Here, each record is paired with measured pIC50 data.
target: Human immunodeficiency virus type 1 protease (Human immunodeficiency virus 1, UniProt Q72874)
pIC50: −log10 of the molar value.
Value Kind: pIC50

# Compound Smiles, Val
measured = [
    ("CC(C)(C)NC(=O)[C@@H]1C[C@@H]2CCCC[C@@H]2CN1C[C@@H](O)[C@H](Cc1ccccc1)NC(=O)O[C@H]1CCS(=O)(=O)C1", 7.12),
    ("CC(C)(C)NC(=O)[C@@H]1C[C@@H]2CCC[C@@H]2CN1C[C@@H](O)[C@H](Cc1ccccc1)NC(=O)O[C@H]1CCOC1", 7.21),
    ("C[C@@H]1C[C@H](OC(=O)N[C@@H](Cc2ccccc2)[C@H](O)CN2C[C@H]3CCCC[C@H]3C[C@H]2C(=O)NC(C)(C)C)CS1(=O)=O", 7.09),
    ("CC(C)(C)NC(=O)[C@@H]1C[C@@H]2CCCC[C@@H]2CN1C[C@@H](O)[C@H](Cc1ccccc1)NC(=O)O[C@@H]1CCCS(=O)(=O)C1", 5.68),
    ("CCCC[C@H]1[C@@H](OC(=O)N[C@@H](Cc2ccccc2)[C@H](O)CN2C[C@H]3CCCC[C@H]3C[C@H]2C(=O)NC(C)(C)C)CCS1(=O)=O", 7.83),
    ("C[C@H]1C[C@@H](OC(=O)N[C@@H](Cc2ccccc2)[C@H](O)CN2C[C@H]3CCCC[C@H]3C[C@H]2C(=O)NC(C)(C)C)CS1(=O)=O", 5.80),
    ("CC(C)(C)NC(=O)[C@@H]1C[C@@H]2CCCC[C@@H]2CN1C[C@@H](O)[C@H](Cc1ccccc1)NC(=O)O[C@H]1CCS(=O)(=O)[C@H]1C1CCCC1", 8.21),
    ("CCC[C@H]1[C@@H](OC(=O)N[C@@H](Cc2ccccc2)[C@H](O)CN2C[C@H]3CCCC[C@H]3C[C@H]2C(=O)NC(C)(C)C)CCS1(=O)=O", 8.21),
    ("CC(C)(C)NC(=O)[C@@H]1C[C@@H]2CCC[C@@H]2CN1C[C@@H](O)[C@H](Cc1ccccc1)NC(=O)O[C@H]1CCS(=O)(=O)C1", 7.95),
]

Just for reference, ChEMBL document CHEMBL1127636 is where these values come from.
